Recorded protein stability index values for a group of variants are listed next.
B1: SEC22B (parent)
chain: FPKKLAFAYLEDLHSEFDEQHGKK

- Variants of: B1
- Assay Remarks: protein stability index of a GFP-peptide fusion (GPS, HEK-293T) (PSI 1-6); higher = more stable;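 further: lentivirally expressed fusions sorted by FACS into six bins by GFP to DsRed ratio, PSI derived from sequencing read proportions per bin multiplied by bin number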
- Condition: c terminus: a fixed tail appended
Observed Property: protein stability index

>>> print(df.to_string())
    change  observed_value
 0    H14Y            2.28
 1    K23L            2.53
 2    S15R            2.41
 3    G22S             2.6
 4    L10D            3.56
 5    L13D            2.54
 6    K24A            2.72
 7    L10K            3.46
 8    D12F            1.97
 9    S15K            2.54
10     A6N            2.56
11     A6C            2.29
12    H14S            2.75
13     K3H            1.17
14    E16D            2.34
15     K3M             2.2
16     F7I            3.24
17    H21D            3.02
18     A8L            1.88
19     F7L            2.65
20    K24I            1.89
21    H14M            2.23
22    D12C            1.95
23     A8Y            1.79
24    E16C               2
25    G22H               3
26    L10N            3.33
27    D12Q            2.22
28     Y9A            2.85
29    H21Y            2.37
30    E16F            1.53
31    E19Q            2.33
32     L5G            2.41
33     K4G            2.72
34     K3N            2.23
35    G22I            2.25
36     L5C            1.66
37     A6T            3.03
38    G22R            2.51
39     A6Q            3.18
40     F1M            3.97
41     A8C            2.09
42    G22T            2.43
43    G22F            1.97
44    K24Y            2.49
45    E19K            2.37
46    K23N            2.66
47    E11V            1.77
48    E16P            2.25
49    D18Y             1.5
50    H14T            2.89
51    D12S            2.16
52    S15A            2.15
53     P2K            2.55
54    E16R            2.39
55     Y9F            1.99
56    E11C            1.88
57    E19F            2.51
58     L5T            3.02
59     K4A            1.81
60    H21M            2.69
61     K4W            1.05
62     L5Q            3.18
63    E11A            2.29
64     A6K            2.59
65    L13T            2.79
66    K23T            1.81
67    D18W            2.17
68     F7W            1.95
69     Y9H             3.1
70    Q20C            2.09
71    K24L            2.12
72    E19M            2.53
73    G22V            2.12
74    D12V            1.85
75     K3L            2.79
76    L10F            2.31
77    K23W            2.38
78    E16I            2.07
79    L13C            2.83
80    K24G            2.11
81    H14Q            2.85
82     F7S             3.8
83    E19V            2.32
84    D12E            3.72
85    E11I            1.87
86    L13A             3.2
87    Q20W            2.46
88     A6L            1.83
89     P2N            3.44
90    D12K            2.38
